# Target Or Test System: FPR1 (Homo sapiens)
# Sequence (P21462 whole entry, species assumed): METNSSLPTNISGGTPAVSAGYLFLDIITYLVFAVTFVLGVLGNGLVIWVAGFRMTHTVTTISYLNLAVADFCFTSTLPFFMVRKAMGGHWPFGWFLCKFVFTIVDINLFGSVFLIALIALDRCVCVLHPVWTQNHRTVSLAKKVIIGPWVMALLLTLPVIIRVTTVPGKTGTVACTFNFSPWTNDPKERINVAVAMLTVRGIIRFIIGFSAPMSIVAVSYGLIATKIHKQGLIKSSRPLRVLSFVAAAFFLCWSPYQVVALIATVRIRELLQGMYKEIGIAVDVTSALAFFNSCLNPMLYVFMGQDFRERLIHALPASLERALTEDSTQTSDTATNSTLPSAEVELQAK
# Protocol Details: Change in calcium activity by peptide, FPR1 activation effect
# Measurement Parameters: calcium activity (Fura-2), graded per Table 3, read-out: EC50 for [Ca^2+] FPR1
Peptide text beside a SMILES is read from it.
Measurement Kind: EC50

Q: Give the reported value of EC50 for this record: CSCC[C@H](N)C(=O)N[C@@H](CCCNC(=N)N)C(=O)N[C@@H](Cc1ccc(O)cc1)C(=O)N[C@@H](Cc1c[nH]c2ccccc12)C(=O)N[C@@H](Cc1ccc(O)cc1)C(=O)N[C@H](CCSC)C(N)=O [Peptide 85] (HELM PEPTIDE1{M.R.Y.W.Y.[dM].[am]}$$$$V2.0)
Result: > 10 µM

Q: Give the reported value of EC50 for this record: CSCC[C@H](NC(=O)[C@H](CCCNC(=N)N)NC(C)=O)C(=O)N[C@@H](CCCNC(=N)N)C(=O)N[C@@H](Cc1ccc(O)cc1)C(=O)N[C@@H](CCCCN)C(=O)N[C@@H](Cc1ccc(O)cc1)C(=O)N[C@H](CCSC)C(N)=O [Peptide 39] (HELM PEPTIDE1{[ac].R.M.R.Y.K.Y.[dM].[am]}$$$$V2.0)
Result: > 10 µM

Q: Give the reported value of EC50 for this record: CSCC[C@@H](NC(=O)[C@H](Cc1ccc(O)cc1)NC(=O)[C@H](CCCNC(=N)N)NC(=O)[C@H](Cc1ccc(O)cc1)NC(=O)[C@H](CCCNC(=N)N)NC(=O)[C@H](Cc1c[nH]c2ccccc12)NC(=O)[C@@H](N)CCCNC(=N)N)C(N)=O [Peptide 48] (HELM PEPTIDE1{R.W.R.Y.R.Y.[dM].[am]}$$$$V2.0)
Result: > 10 µM
